Attribute: IC50 at 72 h
- methodDescription: Cytotoxicity against human K562/A02 cells overexpressing ABCB1 assessed as decrease in cell survival rate incubated for 72 hrs by MTS assay
- Format: toxicity, cell-based

testSmiles	IC50 at 72 h
O=C(/C=C/c1ccc(F)cc1)Nc1ccc(-c2nc3ccccn3c2CN2CCN(c3ccccc3)CC2)cc1	> 100 µM
COc1cc2c(cc1OC)CN(Cc1c(-c3ccc(NC(=O)/C=C/c4cc(OC)c(OC)c(OC)c4)cc3)nc3ccccn13)CC2	> 100 µM
COc1cc2c(cc1OC)CN(Cc1c(-c3ccc(NC(=O)COc4ccccc4Br)cc3)nc3ccccn13)CC2	> 100 µM
COc1cc2c(cc1OC)CN(Cc1c(-c3ccc(NC(=O)COc4ccc(Cl)cc4)cc3)nc3ccccn13)CC2	83 µM
COc1cc(/C=C/C(=O)Nc2ccc(-c3nc4ccccn4c3CN3CCN(c4ccccc4)CC3)cc2)cc(OC)c1OC	> 100 µM
COc1cc2c(cc1OC)CN(Cc1c(-c3ccc(NC(=O)Cn4cnnc4)cc3)nc3ccccn13)CC2	> 100 µM
COc1cc2c(cc1OC)CN(Cc1c(-c3ccc(NC(=O)CN4CCN(C)CC4)cc3)nc3ccccn13)CC2	> 100 µM
O=C(CN1CCN(c2ccc(OC(F)(F)F)cc2)CC1)Nc1ccc(-c2nc3ccccn3c2CN2CCN(c3ccccc3)CC2)cc1	> 100 µM
O=C(/C=C/c1ccc([N+](=O)[O-])cc1)Nc1ccc(-c2nc3ccccn3c2CN2CCN(c3ccccc3)CC2)cc1	48.7 µM
O=C(CN1CCOCC1)Nc1ccc(-c2nc3ccccn3c2CN2CCN(c3ccccc3)CC2)cc1	> 100 µM
COc1cc2c(cc1OC)CN(Cc1c(-c3ccc(NC(=O)COc4ccc(C)cc4)cc3)nc3ccccn13)CC2	> 100 µM
COc1cc2c(cc1OC)CN(Cc1c(-c3ccc(NC(=O)CN4CCN(c5ccc(OC(F)(F)F)cc5)CC4)cc3)nc3ccccn13)CC2	81.2 µM
O=C(CCCN1CCN(c2ccccc2)CC1)Nc1ccc(-c2nc3ccccn3c2CN2CCN(c3ccccc3)CC2)cc1	7.07 µM
COc1cccc(OCC(=O)Nc2ccc(-c3nc4ccccn4c3CN3CCc4cc(OC)c(OC)cc4C3)cc2)c1	> 100 µM
CN1CCN(CC(=O)Nc2ccc(-c3nc4ccccn4c3CN3CCN(c4ccccc4)CC3)cc2)CC1	54.6 µM
O=C(CNCc1ccccc1)Nc1ccc(-c2nc3ccccn3c2CN2CCN(c3ccccc3)CC2)cc1	28.8 µM

---

- methodDescription: Half life in Sprague-Dawley rat at 5 mg/kg, iv by LC-MS/MS analysis
- Format: ADME, organism-based
- conditionSummary: in vivo

testSmiles	quantityUnit	half-life
O=C(CN1CCN(c2ccc(OC(F)(F)F)cc2)CC1)Nc1ccc(-c2nc3ccccn3c2CN2CCN(c3ccccc3)CC2)cc1	h	2.25

---

- Test system: K562/A02
- methodDescription: Cytotoxicity against human K562/A02 cells overexpressing ABCB1 assessed as decrease in cell survival rate at 5 uM incubated for 72 hrs by MTS assay
- Type: toxicity, cell-based
- conditionSummary: k562/a02, 72 h

testSmiles	Activity
COc1cc2c(cc1OC)CN(CC(=O)Nc1ccc(-c3nc4ccccn4c3CN3CCOCC3)cc1)CC2	Non-Toxic
COc1cc2c(cc1OC)CN(CC(=O)Nc1ccc(-c3nc4ccccn4c3CO)cc1)CC2	Non-Toxic
COc1cc2c(cc1OC)CN(CC(=O)Nc1ccc(-c3nc4ccccn4c3CNCc3ccccc3)cc1)CC2	59.82%
COc1cc2c(cc1OC)CN(CC(=O)Nc1ccc(-c3nc4ccccn4c3COCc3ccccc3)cc1)CC2	Non-Toxic

---

- methodDescription: Cytotoxicity against human K562 cells assessed as decrease in cell survival rate incubated for 72 hrs by MTS assay
- Format: toxicity, cell-based

testSmiles	IC50 at 72 h
COc1cc2c(cc1OC)CN(Cc1c(-c3ccc(NC(=O)CN4CCN(C)CC4)cc3)nc3ccccn13)CC2	50.7 µM
CN(C)CC(=O)Nc1ccc(-c2nc3ccccn3c2CN2CCN(c3ccccc3)CC2)cc1	25.2 µM
COc1cc2c(cc1OC)CN(Cc1c(-c3ccc(NC(=O)COc4cccc([N+](=O)[O-])c4)cc3)nc3ccccn13)CC2	> 100 µM
COc1cc2c(cc1OC)CN(Cc1c(-c3ccc(NC(=O)COc4ccccc4Br)cc3)nc3ccccn13)CC2	> 100 µM
COc1cc2c(cc1OC)CN(Cc1c(-c3ccc(NC(=O)COc4ccc(Cl)cc4)cc3)nc3ccccn13)CC2	> 100 µM
C=CCN(CC=C)CC(=O)Nc1ccc(-c2nc3ccccn3c2CN2CCN(c3ccccc3)CC2)cc1	> 100 µM
COc1cc2c(cc1OC)CN(CC(=O)Nc1ccc(-c3nc4ccccn4c3CN3CCN(c4ccccc4)CC3)cc1)CC2	> 100 µM
O=C(Cn1cnnc1)Nc1ccc(-c2nc3ccccn3c2CN2CCN(c3ccccc3)CC2)cc1	> 100 µM
COc1cc2c(cc1OC)CN(Cc1c(-c3ccc(NC(=O)COc4ccccc4)cc3)nc3ccccn13)CC2	> 100 µM
O=C(/C=C/c1ccc(F)cc1)Nc1ccc(-c2nc3ccccn3c2CN2CCN(c3ccccc3)CC2)cc1	> 100 µM
O=C(CN1CCN(c2ccccc2)CC1)Nc1ccc(-c2nc3ccccn3c2CN2CCN(c3ccccc3)CC2)cc1	> 100 µM
O=C1CCCN1c1ccc(-c2nc3ccccn3c2CN2CCN(c3ccccc3)CC2)cc1	> 100 µM
COc1cccc(OCC(=O)Nc2ccc(-c3nc4ccccn4c3CN3CCc4cc(OC)c(OC)cc4C3)cc2)c1	> 100 µM

---

Attribute: IC50 at 72 h
- methodDescription: Cytotoxicity against human K562 cells assessed as decrease in cell survival rate incubated for 72 hrs by MTS assay
- Type: toxicity, cell-based

testSmiles	IC50 at 72 h
C=CCc1ccc(OCC(=O)Nc2ccc(-c3nc4ccccn4c3CN3CCc4cc(OC)c(OC)cc4C3)cc2)c(OC)c1	> 100 µM
O=C(CNCc1ccccc1)Nc1ccc(-c2nc3ccccn3c2CN2CCN(c3ccccc3)CC2)cc1	25.8 µM
COc1cc2c(cc1OC)CN(Cc1c(-c3ccc(NC(=O)COc4ccc(C)cc4)cc3)nc3ccccn13)CC2	> 100 µM
O=C(CN1CCOCC1)Nc1ccc(-c2nc3ccccn3c2CN2CCN(c3ccccc3)CC2)cc1	> 100 µM
Cc1cccc(/C=C/C(=O)Nc2ccc(-c3nc4ccccn4c3CN3CCN(c4ccccc4)CC3)cc2)c1	> 100 µM
COc1cc2c(cc1OC)CN(Cc1c(-c3ccc(NC(=O)CN(C)C)cc3)nc3ccccn13)CC2	> 100 µM
CCN(CC)CC(=O)Nc1ccc(-c2nc3ccccn3c2CN2CCc3cc(OC)c(OC)cc3C2)cc1	> 100 µM
COc1cc2c(cc1OC)CN(Cc1c(-c3ccc(NC(=O)Cn4cnnc4)cc3)nc3ccccn13)CC2	> 100 µM
COc1ccc(/C=C/C(=O)Nc2ccc(-c3nc4ccccn4c3CN3CCN(c4ccccc4)CC3)cc2)cc1	> 100 µM
C=CCN(CC=C)CC(=O)Nc1ccc(-c2nc3ccccn3c2CN2CCc3cc(OC)c(OC)cc3C2)cc1	45.3 µM
COc1cc(/C=C/C(=O)Nc2ccc(-c3nc4ccccn4c3CN3CCN(c4ccccc4)CC3)cc2)cc(OC)c1OC	> 100 µM
COc1cc2c(cc1OC)CN(Cc1c(-c3ccc(NC(=O)/C=C/c4cc(OC)c(OC)c(OC)c4)cc3)nc3ccccn13)CC2	> 100 µM
COc1ccc(OCC(=O)Nc2ccc(-c3nc4ccccn4c3CN3CCc4cc(OC)c(OC)cc4C3)cc2)cc1	> 100 µM
O=C(CCn1cnnc1)Nc1ccc(-c2nc3ccccn3c2CN2CCN(c3ccccc3)CC2)cc1	> 100 µM
O=C(/C=C/c1ccccc1)Nc1ccc(-c2nc3ccccn3c2CN2CCN(c3ccccc3)CC2)cc1	> 100 µM
COc1cc2c(cc1OC)CN(Cc1c(-c3ccc(NC(=O)COc4cccc5cccnc45)cc3)nc3ccccn13)CC2	> 100 µM
CCN(CC)CC(=O)Nc1ccc(-c2nc3ccccn3c2CN2CCN(c3ccccc3)CC2)cc1	24.3 µM
COc1cc2c(cc1OC)CN(Cc1c(-c3ccc(NC(=O)COc4ccccc4C)cc3)nc3ccccn13)CC2	> 100 µM
O=C(/C=C/c1ccc([N+](=O)[O-])cc1)Nc1ccc(-c2nc3ccccn3c2CN2CCN(c3ccccc3)CC2)cc1	10.7 µM
COc1cc2c(cc1OC)CN(Cc1c(-c3ccc(NC(=O)CN4CCN(c5ccc(OC(F)(F)F)cc5)CC4)cc3)nc3ccccn13)CC2	83.7 µM
O=C1CCN1c1ccc(-c2nc3ccccn3c2CN2CCN(c3ccccc3)CC2)cc1	10.5 µM
COc1cc2c(cc1OC)CN(CCC(=O)Nc1ccc(-c3nc4ccccn4c3CN3CCN(c4ccccc4)CC3)cc1)CC2	3.31 µM
O=C(CCCN1CCN(c2ccccc2)CC1)Nc1ccc(-c2nc3ccccn3c2CN2CCN(c3ccccc3)CC2)cc1	3.72 µM
O=C(CN1CCN(c2ccc(OC(F)(F)F)cc2)CC1)Nc1ccc(-c2nc3ccccn3c2CN2CCN(c3ccccc3)CC2)cc1	> 100 µM
COc1cc2c(cc1OC)CN(Cc1c(-c3ccc(NC(=O)CN4CCOCC4)cc3)nc3ccccn13)CC2	> 100 µM
COc1cc2c(cc1OC)CN(Cc1c(-c3ccc(NC(=O)COc4ccc(OC(F)(F)F)cc4)cc3)nc3ccccn13)CC2	29.9 µM
COc1cc2c(cc1OC)CN(Cc1c(-c3ccc(NC(=O)CCN4CCN(c5ccccc5)CC4)cc3)nc3ccccn13)CC2	93.1 µM
COc1cc2c(cc1OC)CN(Cc1c(-c3ccc(NC(=O)CN4CCN(c5ccccc5)CC4)cc3)nc3ccccn13)CC2	> 100 µM
O=C(CCN1CCN(c2ccccc2)CC1)Nc1ccc(-c2nc3ccccn3c2CN2CCN(c3ccccc3)CC2)cc1	58.8 µM
COc1cc2c(cc1OC)CN(CC(=O)Nc1ccc(-c3nc4ccccn4c3CN3CCc4cc(OC)c(OC)cc4C3)cc1)CC2	> 100 µM
Cc1ccc(/C=C/C(=O)Nc2ccc(-c3nc4ccccn4c3CN3CCN(c4ccccc4)CC3)cc2)cc1	32.8 µM
O=C(/C=C/c1ccc(Cl)cc1)Nc1ccc(-c2nc3ccccn3c2CN2CCN(c3ccccc3)CC2)cc1	> 100 µM
CN1CCN(CC(=O)Nc2ccc(-c3nc4ccccn4c3CN3CCN(c4ccccc4)CC3)cc2)CC1	21.4 µM
